Tested on: 323965-272-R-J2-PDC complex spheroid viability
RUN DESCRIPTION: Anticancer human tumor 323965-272-R-J2-PDC patient-derived pancreatic carcinoma cell line growth inhibition [CLK]
CONDITIONS: second compound 0.316 µM; first compound 0.1 µM; hits give low values
Note to self: use Satisfied only for viability, T/C readings below 30%; a reading exactly at 30% still gets Not satisfied.

# TODO verify viability, T/C < 30% strictly for this compound: CCc1c2c(nc3ccc(O)cc13)-c1cc3c(c(=O)n1C2)COC(=O)[C@]3(O)CC + CNC(=O)c1ccc(Nc2nc(OC3CCCC3)c3c(-c4ccc5nc(C)oc5c4)c[nH]c3n2)c(OC)c1
Satisfied

# TODO verify viability, T/C < 30% strictly for this compound: O=c1[nH]cc(F)c(=O)[nH]1 + CN1CCN(c2cc(C(=O)Nc3cc4cc(-c5cnn(C)c5)ccc4cn3)ccn2)CC1
Satisfied

# TODO verify viability, T/C < 30% strictly for this compound: CC1COCCN1c1cc(C2(S(C)(=N)=O)CC2)nc(-c2ccnc3[nH]ccc23)n1 (stereo unspecified) + CNC(=O)c1ccc(Nc2nc(OC3CCCC3)c3c(-c4ccc5nc(C)oc5c4)c[nH]c3n2)c(OC)c1
Not satisfied

# TODO verify viability, T/C < 30% strictly for this compound: Nc1ccccc1NC(=O)c1ccc(CNC(=O)OCc2cccnc2)cc1 + CNC(=O)c1ccc(Nc2nc(OC3CCCC3)c3c(-c4ccc5nc(C)oc5c4)c[nH]c3n2)c(OC)c1
Not satisfied

# TODO verify viability, T/C < 30% strictly for this compound: C#Cc1c(F)ccc2cc(O)cc(-c3ncc4c(N5CC6CCC(C5)N6)nc(OCC56CCCN5CC(F)C6)nc4c3F)c12 (stereo unspecified) + CN1CCN(c2cc(C(=O)Nc3cc4cc(-c5cnn(C)c5)ccc4cn3)ccn2)CC1
Satisfied

# TODO verify viability, T/C < 30% strictly for this compound: O=C(c1cc(Cc2n[nH]c(=O)c3ccccc23)ccc1F)N1CCN(C(=O)C2CC2)CC1 + CN1CCN(c2cc(C(=O)Nc3cc4cc(-c5cnn(C)c5)ccc4cn3)ccn2)CC1
Satisfied

---

Test system: 323965-272-R-J2-PDC complex spheroid viability
RUN DESCRIPTION: Anticancer human tumor 323965-272-R-J2-PDC cell line growth inhibition [CLK]; active = viability on the fitted dose curve at most 10% of control; inactive = the rest;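 note: spheroids exposed to agents for seven days before readout; percent of DMSO vehicle control wells so 100% = untreated growth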
CONDITIONS: second compound 3.16 µM; first compound 0.1 µM
Please answer using one outcome listed in active, inactive

Outcome? CCN1CCN(Cc2ccc(Nc3ncc(F)c(-c4cc(F)c5nc(C)n(C(C)C)c5c4)n3)nc2)CC1 + CN1CCN(c2cc(C(=O)Nc3cc4cc(-c5cnn(C)c5)ccc4cn3)ccn2)CC1
active

Outcome? CC1COCCN1c1cc(C2(S(C)(=N)=O)CC2)nc(-c2ccnc3[nH]ccc23)n1 (stereo not given) + CN1CCN(c2cc(C(=O)Nc3cc4cc(-c5cnn(C)c5)ccc4cn3)ccn2)CC1
active

Outcome? C#Cc1c(F)ccc2cc(O)cc(-c3ncc4c(N5CC6CCC(C5)N6)nc(OCC56CCCN5CC(F)C6)nc4c3F)c12 (stereo not given) + CNC(=O)c1ccc(Nc2nc(OC3CCCC3)c3c(-c4ccc5nc(C)oc5c4)c[nH]c3n2)c(OC)c1
inactive

Outcome? CCc1c2c(nc3ccc(O)cc13)-c1cc3c(c(=O)n1C2)COC(=O)[C@]3(O)CC + CNC(=O)c1ccc(Nc2nc(OC3CCCC3)c3c(-c4ccc5nc(C)oc5c4)c[nH]c3n2)c(OC)c1
inactive

Outcome? COc1c(OCCCN2CCOCC2)ccc2c3n(c(=NC(=O)c4cnc(N)nc4)nc12)CCN3 + CN1CCN(c2cc(C(=O)Nc3cc4cc(-c5cnn(C)c5)ccc4cn3)ccn2)CC1
active

---

Test system: 323965-272-R-J2-PDC complex spheroid viability
RUN DESCRIPTION: Anticancer human tumor 323965-272-R-J2-PDC cell line growth inhibition [CLK]; active = viability on the fitted dose curve at most 10% of control; inactive = the rest;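 note: spheroids exposed to agents for seven days before readout; percent of DMSO vehicle control wells so 100% = untreated growth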
CONDITIONS: second compound 1 µM; first compound 0.0316 µM
Please answer using one outcome listed in yes (active), no (inactive)

Outcome? CC(CO)NC(=O)c1cc(-c2ccc(Cl)cc2)nn(-c2cnn(C)c2)c1=O (stereo unspecified) + CNC(=O)c1ccc(Nc2nc(OC3CCCC3)c3c(-c4ccc5nc(C)oc5c4)c[nH]c3n2)c(OC)c1
no

Outcome? C=C(F)C(=O)N1CCN(c2nc(OCC3CCCN3C)nc3c2CCN(c2cccc4cccc(Cl)c24)C3)CC1CC#N (stereo unspecified) + CN1CCN(c2cc(C(=O)Nc3cc4cc(-c5cnn(C)c5)ccc4cn3)ccn2)CC1
yes

Outcome? C=CC(=O)N1CCN(c2nc(=O)n(-c3c(C)ccnc3C(C)C)c3nc(-c4c(O)cccc4F)c(F)cc23)C(C)C1 (stereo unspecified) + CN1CCN(c2cc(C(=O)Nc3cc4cc(-c5cnn(C)c5)ccc4cn3)ccn2)CC1
yes

Outcome? Nc1ccccc1NC(=O)c1ccc(CNC(=O)OCc2cccnc2)cc1 + CNC(=O)c1ccc(Nc2nc(OC3CCCC3)c3c(-c4ccc5nc(C)oc5c4)c[nH]c3n2)c(OC)c1
no

Outcome? CC1COCCN1c1cc(C2(S(C)(=N)=O)CC2)nc(-c2ccnc3[nH]ccc23)n1 (stereo unspecified) + CN1CCN(c2cc(C(=O)Nc3cc4cc(-c5cnn(C)c5)ccc4cn3)ccn2)CC1
yes

Outcome? Nc1ccn(C2OC(CO)C(O)C2(F)F)c(=O)n1 (stereo unspecified) + CN1CCN(c2cc(C(=O)Nc3cc4cc(-c5cnn(C)c5)ccc4cn3)ccn2)CC1
yes

Outcome? O=C(c1cc(Cc2n[nH]c(=O)c3ccccc23)ccc1F)N1CCN(C(=O)C2CC2)CC1 + CNC(=O)c1ccc(Nc2nc(OC3CCCC3)c3c(-c4ccc5nc(C)oc5c4)c[nH]c3n2)c(OC)c1
no

Outcome? Nc1ccccc1NC(=O)c1ccc(CNC(=O)OCc2cccnc2)cc1 + CN1CCN(c2cc(C(=O)Nc3cc4cc(-c5cnn(C)c5)ccc4cn3)ccn2)CC1
yes

Outcome? COc1ccc([C@@H](O)c2cc(-c3ncnc4cc(N5CCOCC5)ccc34)c(F)cc2Cl)nn1 + CN1CCN(c2cc(C(=O)Nc3cc4cc(-c5cnn(C)c5)ccc4cn3)ccn2)CC1
yes

Outcome? Cn1ncnc1[C@H]1c2n[nH]c(=O)c3cc(F)cc(c23)N[C@@H]1c1ccc(F)cc1 + CN1CCN(c2cc(C(=O)Nc3cc4cc(-c5cnn(C)c5)ccc4cn3)ccn2)CC1
yes

Outcome? COc1ccc([C@@H](O)c2cc(-c3ncnc4cc(N5CCOCC5)ccc34)c(F)cc2Cl)nn1 + CNC(=O)c1ccc(Nc2nc(OC3CCCC3)c3c(-c4ccc5nc(C)oc5c4)c[nH]c3n2)c(OC)c1
no

Outcome? O=c1[nH]cc(F)c(=O)[nH]1 + CN1CCN(c2cc(C(=O)Nc3cc4cc(-c5cnn(C)c5)ccc4cn3)ccn2)CC1
yes

Outcome? O=c1[nH]cc(F)c(=O)[nH]1 + CNC(=O)c1ccc(Nc2nc(OC3CCCC3)c3c(-c4ccc5nc(C)oc5c4)c[nH]c3n2)c(OC)c1
no

Outcome? CCCS(=O)(=O)Nc1ccc(F)c(C(=O)c2c[nH]c3ncc(-c4ccc(Cl)cc4)cc23)c1F + CN1CCN(c2cc(C(=O)Nc3cc4cc(-c5cnn(C)c5)ccc4cn3)ccn2)CC1
yes

Outcome? CC1(C)CCC(CN2CCN(c3ccc(C(=O)NS(=O)(=O)c4ccc(NCC5CCOCC5)c([N+](=O)[O-])c4)c(Oc4cnc5[nH]ccc5c4)c3)CC2)=C(c2ccc(Cl)cc2)C1 + CN1CCN(c2cc(C(=O)Nc3cc4cc(-c5cnn(C)c5)ccc4cn3)ccn2)CC1
yes

Outcome? COc1c(OCCCN2CCOCC2)ccc2c3n(c(=NC(=O)c4cnc(N)nc4)nc12)CCN3 + CN1CCN(c2cc(C(=O)Nc3cc4cc(-c5cnn(C)c5)ccc4cn3)ccn2)CC1
yes

---

Record form. Attribute: viability, T/C. Fill in for each entry.
Test system: 323965-272-R-J2-PDC complex spheroid viability
RUN DESCRIPTION: Anticancer human tumor 323965-272-R-J2-PDC cell line growth inhibition [CLK];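 note: spheroids exposed to agents for seven days before readout; percent of DMSO vehicle control wells so 100% = untreated growth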
CONDITIONS: second compound 0.316 µM; first compound 0.1 µM; hits give low values
Form entry: value (%) — number only.

Provide one value: measured viability, T/C of CC(=O)O[C@H]1C(=O)[C@@]2(C)[C@H]([C@H](OC(=O)c3ccccc3)[C@]3(O)C[C@H](OC(=O)[C@H](O)[C@@H](NC(=O)c4ccccc4)c4ccccc4)C(C)=C1C3(C)C)[C@]1(OC(C)=O)CO[C@@H]1C[C@@H]2O + CNC(=O)c1ccc(Nc2nc(OC3CCCC3)c3c(-c4ccc5nc(C)oc5c4)c[nH]c3n2)c(OC)c1
68.7

Provide one value: measured viability, T/C of CCCS(=O)(=O)Nc1ccc(F)c(C(=O)c2c[nH]c3ncc(-c4ccc(Cl)cc4)cc23)c1F + CNC(=O)c1ccc(Nc2nc(OC3CCCC3)c3c(-c4ccc5nc(C)oc5c4)c[nH]c3n2)c(OC)c1
74.8

Provide one value: measured viability, T/C of COC1C=CCC(C)C(C)S(=O)(=O)NC(=O)c2ccc3c(c2)N(CC2CCC21)CC1(CCCc2cc(Cl)ccc21)CO3 (stereo not drawn) + CNC(=O)c1ccc(Nc2nc(OC3CCCC3)c3c(-c4ccc5nc(C)oc5c4)c[nH]c3n2)c(OC)c1
62
